IC50 data for Human immunodeficiency virus type 1 protease (Human immunodeficiency virus 1) follow.
endpointLabel: IC50 (nM)

molecule | endpointLabel | unitOfMeasure | endpointResult
Cc1cc(SC2C(=O)CC(CCc3ccc(O)cc3)(C(C)C)OC2=O)c(C(C)(C)C)cc1NC(=O)c1cccnc1 (stereo not given) | IC50 | nM | 5.1
Cc1cc(SC2C(=O)CC(CCc3ccc(O)cc3)(C(C)C)OC2=O)c(C(C)(C)C)cc1NC(=O)c1ccncc1 (stereo not given) | IC50 | nM | 5.1
Cc1cc(SC2C(=O)CC(CCc3ccccc3)(c3ccccc3)OC2=O)c(C(C)(C)C)cc1N (stereo not given) | IC50 | nM | 11
Cc1cc(SC2C(=O)CC(CCc3ccc(O)cc3)(C(C)C)OC2=O)c(C(C)(C)C)cc1NC(=O)c1ccccc1 (stereo not given) | IC50 | nM | 13
Cc1cc(SC2C(=O)CC(CCc3ccc(O)cc3)(C(C)C)OC2=O)c(C(C)(C)C)cc1N(C)C (stereo not given) | IC50 | nM | 11

====

- assayedSystem: Human immunodeficiency virus type 1 protease (Human immunodeficiency virus 1, UniProt Q72874)
- assayProtocol: Binding affinity towards HIV protease was determined
endpointLabel: Ki (pM)

compound | endpointResult
Cc1cc(SC2C(=O)C[C@@](CCc3ccc(O)cc3)(C(C)C)OC2=O)c(C(C)(C)C)cc1N (stereo partly specified) | 70
